Form field: growth inhibition (one value per entry).
experiment: NCI Yeast Anticancer Drug Screen. Data for the mec2-1 strain (AID 157); settings: S. cerevisiae mec2-1 strain, at 50.0 µM, stronger effect = higher value
The panel holds about 79,000 compounds, 15% with a hit somewhere; the sample as a whole holds those more often.

| molecule | growth inhibition, % |
| --- | --- |
| CCCCCCCCCCCCCCCCCC(=O)Nc1ccn(C2OC(CO)C(O)C2O)c(=O)n1 (stereo unspecified) | 83.6 |
| O=C(OCC1OC(OCC(OC(=O)c2ccccc2)C(OC(=O)c2ccccc2)C(OC(=O)c2ccccc2)c2cnn(-c3ccccc3)n2)C(OC(=O)c2ccccc2)C(OC(=O)c2ccccc2)C1OC(=O)c1ccccc1)c1ccccc1 (stereo unspecified) | 94.8 |
| O=Cc1ccc2c(c1)CC1(C2)Cc2ccc3c(c2C1)CCC3 (stereo unspecified) | 89.3 |
| CC1=C(C(=O)Nc2ccccc2)C(c2cccc3ccccc23)C(C(=O)Nc2ccccc2)=C(C)N1 | 91 |
| COc1ccc(C(=O)C2Cc3c(ccc4ccccc34)OC2=O)cc1 (stereo unspecified) | -1.25 |
| COc1ccc(-c2ccccc2)cc1SCCC(=O)O | 70.5 |
| Cc1cc(N(CCC#N)CCC#N)ccc1/C(Sc1ccccc1)=C(\NC(=O)/C=C/c1ccccc1)C(=O)Sc1ccccc1 | 90 |
| O=C(Oc1ccc(Cl)cc1)Oc1ccc(Cl)cc1 | 16.7 |
| COC1=CC(=O)c2ncccc2C1=O | 78.5 |
| CCCCN(CCCC)C(=O)c1ccc(OC(=O)OCC)c(OC)c1 | 37 |
| O=C1C(Br)=C(Br)C(=O)c2ccccc21 | 94.2 |
| O=C(NCCCNCCCCNCCCNC(=O)c1cc(-c2ccccc2)nc2ccccc12)c1cc(-c2ccccc2)nc2ccccc12 | 93.2 |
| CC1(C)N=C(N)N=C(N)N1c1cccc(OCc2cccc(N)c2)c1 | 5.65 |
| COc1ccc(CSC2=C(C#N)C(=O)NC3(CCCCC3)S2)cc1 | 2.25 |
| Cc1ccc2c(c1)-c1cc(C)ccc1C2(O)c1ccccc1 | 97.9 |
| O=[N+]([O-])c1ccccc1NCCO | -5.65 |
| C=C1C(=O)OC2CC3(C)CC(O)C(O)C(=C)C3CC12 (stereo unspecified) | 94.7 |
| O=[N+]([O-])c1ccc(/C=N/NC2=CS(=O)(=O)C=C2)cc1 | 2.45 |
| CC(=O)NS(=O)(=O)c1ccc(N=Cc2cc(Cl)cc(Cl)c2O)cc1 | 92.1 |
| CCC(=O)C(CCN(CC)CC)(CCN(CC)CC)c1ccccc1 | 99.3 |
| COc1cc(CNc2nc3ccccc3nc2-c2cccs2)cc(OC)c1OC | 0.65 |

====

experiment: NCI Yeast Anticancer Drug Screen. Data for the mlh1 rad18 strain (AID 175); conditions: S. cerevisiae mlh1 rad18 strain growth inhibition; at 50.0 µM
The panel holds about 79,000 compounds, 15% with a hit somewhere; the sample as a whole holds those more often. Calls of active or inactive are those of the source. No stated cut-off is given here; in the data, active means growth inhibition above about 70%; inactive means the rest.
Outcome codes: label 1 = active, label 0 = inactive

| compound | classification |
| --- | --- |
| CCOC(=O)c1ccc(O)c(C=O)c1 | label 1 |
| O=C(OC1=C(Br)C(=O)c2ccccc2C1=O)c1ccccc1 | label 0 |
| COc1ccc(/C=C2\Sc3scc(-c4ccc([N+](=O)[O-])cc4)[n+]3C2=O)cc1OC | label 0 |
| Oc1c(Br)cc(Br)c2cccnc12 | label 1 |
| C=[CH][Sn]([CH]=C)([S]c1cccc2cccnc12)[S]c1cccc2cccnc12 | label 1 |
| CCCCNc1cccc2ncccc12 | label 0 |
| Cc1cccc(Cc2cccc(Cl)c2)c1O | label 1 |
| CCCCCCCCCCCCCCCCCCOC(=O)C(N)Cc1ccccc1 (configuration not stated) | label 0 |
| Cc1ccc(-c2c(C#N)c(-c3ccc(Cl)cc3)c(C#N)c(=O)n2NS(=O)(=O)c2ccccc2)cc1 | label 1 |
| CCCC(=O)Oc1c(Br)cc(Br)cc1Br | label 0 |
| O=C(c1ccccc1)c1[nH]c2ccccc2c(=O)c1-c1ccc([N+](=O)[O-])cc1 | label 1 |
| CN1C(=O)OC(C)(c2ccccc2)C1=O (configuration not stated) | label 0 |

====

experiment: NCI Yeast Anticancer Drug Screen. Data for the mec2-1 strain (AID 157); conditions: S. cerevisiae mec2-1 strain, at 5.0 µM (retest, dose inferred, filed as 0.5), stronger effect = higher value
Compounds without any hit were thinned out: in the full panel of roughly 79,000, 15% have a hit.

| compound | growth inhibition (%) |
| --- | --- |
| NCCOB1c2ccccc2Cc2ccccc21 | 6 |
| CCCOC(=O)CSC#N | 33 |
| Cc1ccc(S(=O)(=O)Nn2c(S)c(C#N)c(-c3ccc(Cl)cc3)c(C#N)c2=O)cc1 | 17 |
| CCCN(CCC)C(=O)C(C)C | 2 |
| S=c1ncc2c([nH]1)C1c3ccccc3C2c2ccccc21 | -6 |
| COc1ccc(C2C3C(=O)OCCOC(=O)C3C2c2ccc(OC)c(OC)c2)cc1OC (stereo not drawn) | 13 |
| C/C(=N\NC(=S)N/N=C(\C)c1ccccn1)c1ccccn1 | 90 |
| Cc1ccc2cccc(N)c2c1 | 3 |
| CN(C)c1nc(=NCc2ccco2)ss1 | 17 |
| N#CCCN(CCC#N)Cc1cc(-c2ccccc2)ccc1O | 1 |
| Nc1nc(=Nc2ccccc2)ss1 | 6 |
| O=C(/C=C/c1ccc(O)cc1)c1cc(Cl)ccc1O | 6 |
| NCCC(N)P(=O)(O)O (stereo not drawn) | -46 |

====

Form field: growth inhibition (one value per entry).
experiment: NCI Yeast Anticancer Drug Screen. Data for the mlh1 rad18 strain (AID 175); settings: S. cerevisiae mlh1 rad18 strain growth inhibition; at 5.0 µM (retest, dose inferred, filed as 0.5); stronger effect = higher value
Compounds without any hit were thinned out: in the full panel of roughly 79,000, 15% have a hit. Activity calls are given as the source filed them. Rule as the data show it: active = growth inhibition above about 70%; inactive = the rest.

| molecule | growth inhibition |
| --- | --- |
| CCc1nc(N)nc(N)c1-c1ccc(NCCCN)c([N+](=O)[O-])c1 | -17% (inactive) |
| O=C1C(Cl)=C(c2ccccc2)C1Cl (stereo unspecified) | 99% (active) |
| Cc1ccc(S(=O)(=O)NCCSCCSCCNS(=O)(=O)c2ccc(C)cc2)cc1 | -2% (inactive) |
| CCCCCCOC(=O)Nc1ccc(S(=O)(=O)N2CCCCC2)cc1 | -1% (inactive) |
| O=C(Nc1cccnc1)c1ccc(CSc2ccc(Cl)cc2)o1 | 57% (inactive) |
| O=[N+]([O-])C1CCCC(C2=CSC3CCCCC3N2)C1 (stereo unspecified) | -24% (inactive) |

====

Form field: growth inhibition (one value per entry).
assay: NCI Yeast Anticancer Drug Screen. Data for the mlh1 rad18 strain (AID 175); conditions: S. cerevisiae mlh1 rad18 strain growth inhibition; at 5.0 µM (retest, dose inferred, filed as 0.5); stronger effect = higher value
This is part of a sample that, as a whole, favours compounds with a hit. Of some 79,000 tested, about 15% had one in any assay. Calls of active or inactive are those of the source. Rule as the data show it: active = growth inhibition above about 70%; inactive = the rest.
measurementLabel: growth inhibition

| compound | reported |
| --- | --- |
| COc1cc(/C=C\C(=O)c2cccc(O)c(=O)c2)cc(OC)c1OC | 7% (inactive) |
| CN1C/C(=C\c2ccc(Cl)cc2)C(=O)/C(=C/c2ccc(Cl)cc2)C1 | 83% (active) |
| O=[N+]([O-])c1ccc(S(=O)(=O)Cc2ccccc2)c2nonc12 | 6% (inactive) |
| COc1ccc(SSc2ccc(OC)n[n+]2[O-])[n+]([O-])n1 | 72% (active) |
| Cc1[nH]c2ccccc2c1C(C)CC(O)c1ccccc1 (centres undefined) | 8% (inactive) |
| COC1=Nc2ccccc2/C=C\c2ccccc21 | -124% (inactive) |
| CC1(c2cccs2)C(C#N)(C#N)C1(C#N)C#N | 9% (inactive) |
| CC(CCl)OC(=O)Nc1cccc(C(F)(F)F)c1 (centres undefined) | 55% (inactive) |
| COc1ccc2c(c1)C1(C)CCCC(C)(C(=O)O)C1CC2 (centres undefined) | 2% (inactive) |
| CC(C)[C@H](N)C(=O)NCCNC(=O)[C@@H](N)C(C)C | 89% (active) |
| N#C/C(=C\c1cccnc1)c1csc2ccccc12 | -5% (inactive) |
| CCOC(=O)CC1=NC(=Nc2cc(Cl)ccc2Cl)SC1 | 38% (inactive) |
| CC12CCC(=O)C=C1CCC1C2C(O)CC2(C)C(c3csc(N)n3)CCC12 (centres undefined) | 38% (inactive) |
| CC(C)(C)C(NO)C(O)N1CCCCC1 (centres undefined) | -118% (inactive) |
| CCCCc1ccc2nc(C)cc(N=[N+]=[N-])c2c1 | -2% (inactive) |
| Nc1ccc2c(S(=O)(=O)O)cc(S(=O)(=O)O)cc2c1 | 1% (inactive) |
| CC1=C(C(=O)Nc2cccc3ccccc23)C(c2cccc([N+](=O)[O-])c2)C(C(=O)Nc2cccc3ccccc23)=C(C)N1 | -22% (inactive) |
| O=C(O)c1ccccc1C(c1ccccc1)c1ccccc1 | 6% (inactive) |
| Clc1ccc(SSN2CCOCC2)cc1 | 0% (inactive) |
| CC(CO)(CO)N=Cc1cc(I)cc(I)c1O | 98% (active) |
| COc1ccc(C2c3cc4c(cc3OC(O)C2C)OCO4)c(OC)c1 (centres undefined) | -5% (inactive) |
| O=S(=O)(Nc1ccccc1-c1ccc(Cl)cc1)c1ccccc1 | -8% (inactive) |
| CNC(=O)OCc1c(-c2ccccc2)c(-c2ccccc2)n(-c2ccc(OC)cc2)c1COC(=O)NC | 23% (inactive) |
| CCN(CC)c1ccc(N=Nc2ccc(Br)cn2)c(O)c1 | -1% (inactive) |
